Reference for the values: patent US20170022281A1

- target system: T1, human PRLR (Biacore antigen) (human, UniProt P16471 25-234, limits assumed)
- T1 construct: The construct injected over captured antibody is not described (a soluble form is likely); also called huPRLR
- T1 sequence: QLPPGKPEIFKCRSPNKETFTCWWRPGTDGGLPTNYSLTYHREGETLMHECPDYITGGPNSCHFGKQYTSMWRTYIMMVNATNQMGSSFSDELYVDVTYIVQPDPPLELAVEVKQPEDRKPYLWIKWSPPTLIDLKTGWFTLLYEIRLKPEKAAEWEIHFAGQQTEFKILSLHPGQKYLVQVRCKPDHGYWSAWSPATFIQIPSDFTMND
- test description: SPR Biacore
pKd: −log10 of the molar value.
assay metric: pKd

| binder | assay metric | experimental result |
| --- | --- | --- |
| Ab20 (antibody, human IgG1, kappa, V domains shown, humanized from Ab6; G1; also called Ab1 HC.1a and Ab1 LC.2) VH: EVQLVQSGAEVKKPGSSVKVSCKASGYTFTTYWMHWVRQAPGQGLEWIGEIDPSDSYSNYNQKFKDRATLTVDKSTSTAYMELSSLRSEDTAVYYCARNGGLGPAWFSYWGQGTLVTVSS VL: EIVMTQSPATLSVSPGERATLSCKASQYVGTAVAWYQQKPGQAPRLLIYSASNRYTGIPARFSGSGSGTEFTLTISSLQSEDFAVYYCQQYSSYPWTFGGGTKVEIKR | pKd | 8.70 |
| Ab12 (antibody, V domains shown, murine monoclonal, isotype G2a; reported as PRLR agonist; also called murine Ab12) VH: DVQLQESGPGLVKPSQSLSLTCTVTGYSITSDYAWNWIRQFPGNKLEWMGYIGYSGRTSFNPSLKSRISITRDTSKNQFFLQLNSVTTEDTATYYCARGGFAMDYWGQGTSVTVSS VL: QIVLTQSPGIMSASPGEKVTMTCSASSSVTYMYWYQQKPRSSPKPWIYLTSNLASGVPARFSGSGSGTSYSLTISSMEAEDGATYYCQQWSSTPPLTFGGGTKLELN | pKd | 8.18 |
